Give IC50 for every item shown.
Molecular target: ALK (Homo sapiens, UniProt Q9UM73)
Construct: host or cells: baculovirus expression system
Sequence (Q9UM73 19-1620): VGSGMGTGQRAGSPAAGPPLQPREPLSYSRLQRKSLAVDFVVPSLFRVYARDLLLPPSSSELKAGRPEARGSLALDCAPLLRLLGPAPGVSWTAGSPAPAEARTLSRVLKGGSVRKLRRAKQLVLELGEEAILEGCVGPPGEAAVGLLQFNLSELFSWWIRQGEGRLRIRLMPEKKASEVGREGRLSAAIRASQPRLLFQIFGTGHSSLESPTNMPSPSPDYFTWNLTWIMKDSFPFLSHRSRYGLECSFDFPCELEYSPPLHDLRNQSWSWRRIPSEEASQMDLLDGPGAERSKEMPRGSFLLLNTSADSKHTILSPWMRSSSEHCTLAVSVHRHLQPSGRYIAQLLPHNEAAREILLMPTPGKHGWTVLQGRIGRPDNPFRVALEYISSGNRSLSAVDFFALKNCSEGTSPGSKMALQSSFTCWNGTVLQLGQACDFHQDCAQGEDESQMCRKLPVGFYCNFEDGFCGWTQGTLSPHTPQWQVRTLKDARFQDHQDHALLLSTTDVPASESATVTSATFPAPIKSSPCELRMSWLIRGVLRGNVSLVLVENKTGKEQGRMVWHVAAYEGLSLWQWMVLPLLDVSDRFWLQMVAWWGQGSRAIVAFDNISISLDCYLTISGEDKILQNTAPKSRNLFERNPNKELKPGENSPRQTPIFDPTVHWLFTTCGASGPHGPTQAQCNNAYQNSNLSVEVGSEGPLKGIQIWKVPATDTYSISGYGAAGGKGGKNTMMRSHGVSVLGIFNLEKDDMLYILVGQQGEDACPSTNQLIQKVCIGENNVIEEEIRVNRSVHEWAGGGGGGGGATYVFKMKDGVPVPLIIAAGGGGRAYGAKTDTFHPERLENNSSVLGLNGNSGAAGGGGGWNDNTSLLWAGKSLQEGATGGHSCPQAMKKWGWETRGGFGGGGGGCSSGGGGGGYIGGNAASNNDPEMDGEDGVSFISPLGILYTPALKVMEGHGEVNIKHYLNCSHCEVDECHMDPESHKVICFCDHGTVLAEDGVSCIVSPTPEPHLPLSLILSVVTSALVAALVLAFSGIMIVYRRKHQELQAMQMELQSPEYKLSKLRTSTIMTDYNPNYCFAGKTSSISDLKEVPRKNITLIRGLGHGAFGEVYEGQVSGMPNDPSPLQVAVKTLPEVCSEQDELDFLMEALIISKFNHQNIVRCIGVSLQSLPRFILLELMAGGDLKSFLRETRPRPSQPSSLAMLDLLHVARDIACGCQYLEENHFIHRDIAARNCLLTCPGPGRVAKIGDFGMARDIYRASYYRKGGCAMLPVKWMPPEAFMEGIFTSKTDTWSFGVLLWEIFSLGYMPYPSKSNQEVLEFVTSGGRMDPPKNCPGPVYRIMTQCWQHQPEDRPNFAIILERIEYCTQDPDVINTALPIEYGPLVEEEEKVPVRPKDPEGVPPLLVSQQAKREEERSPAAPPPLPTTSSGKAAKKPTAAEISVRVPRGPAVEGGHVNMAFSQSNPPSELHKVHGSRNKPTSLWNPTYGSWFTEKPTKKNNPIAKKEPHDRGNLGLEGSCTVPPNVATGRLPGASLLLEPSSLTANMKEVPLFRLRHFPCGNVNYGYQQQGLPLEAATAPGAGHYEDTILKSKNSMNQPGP
Assay: ALK Kinase Assay (ELISA/TRF, PLC-γ substrate)
Format: biochemical
Conditions: ALK kinase inhibition, 1 μM ATP; read-out: ALK Potency

Query: Dear colleague, I am looking for the recorded IC50 of the following molecule: COc1cc(N2CCC(N3CCN(C)CC3)CC2)ccc1Nc1ncc2ccc(-c3ccc(Cl)nc3)n2n1
Response: < 0.1 µM

Query: Next entry: COc1cc(Nc2ncc3ccc(-c4ccccc4N(C)S(C)(=O)=O)n3n2)ccc1C1CCN(CC(N)=O)CC1
Response: < 0.1 µM

Query: Next entry: CN1C2CCC1CC(c1ccc(Nc3ncc4ccc(-c5cccc(S(=O)(=O)NC(C)(C)C)c5)n4n3)cc1)C2 (stereo not shown)
Response: 0.1 to 1 µM

Query: Next entry: CN(c1ccccc1-c1ccc2cnc(Nc3ccc(C4CCN(CCO)CC4)cc3)nn12)S(C)(=O)=O
Response: < 0.1 µM

Query: Next entry: COC[C@H](O)CN1CCN(Cc2ccc(Nc3ncc4ccc(-c5ccccc5OC)n4n3)c(OC)c2)CC1
Response: < 0.1 µM

Query: Next entry: CC(C)(C)NS(=O)(=O)c1cccc(-c2ccc3cnc(Nc4ccc(C5CN(CC(N)=O)C5)cc4)nn23)c1
Response: 0.1 to 1 µM

Query: Next entry: CC(C)(C)NS(=O)(=O)c1cccc(-c2ccc3cnc(Nc4ccc5[nH]c(=O)[nH]c5c4)nn23)c1
Response: 0.1 to 1 µM

Query: Next entry: CC(C)(C)NS(=O)(=O)c1cccc(-c2ccc3cnc(Nc4ccc(C5CCC(N6CCOCC6)CC5)cc4)nn23)c1 (stereo not shown)
Response: 0.1 to 1 µM

Query: Next entry: COc1cc(CN2CCN(C(=O)CNC(=O)OC(C)(C)C)CC2)ccc1Nc1ncc2ccc(-c3ccccc3N(C)S(C)(=O)=O)n2n1
Response: < 0.1 µM

Query: Next entry: CC(C)(C)NS(=O)(=O)c1cccc(-c2ccc3cnc(Nc4ccc5ncsc5c4)nn23)c1
Response: > 10 µM

Query: Next entry: COc1cc2c(cc1Nc1ncc3ccc(-c4ccccc4OC)n3n1)CN(C(=O)OC(C)(C)C)C2
Response: 1 to 10 µM

Query: Next entry: CN1CCCC1COc1cc(Nc2ncc3ccc(-c4ccccc4N(C)S(C)(=O)=O)n3n2)ccc1Cl (stereo not shown)
Response: 0.1 to 1 µM

Query: Next entry: CN1CCC(c2ccc(Nc3ncc4ccc(-c5ccn(C)n5)n4n3)cc2)CC1
Response: 0.1 to 1 µM

Query: Next entry: COc1cc(N2CCC(N3CCOCC3)CC2)ccc1Nc1ncc2ccc(-n3cccn3)n2n1
Response: 0.1 to 1 µM

Query: Next entry: c1ccc2ncc(-c3ccc4cnc(Nc5ccc(N6CCOCC6)cc5)nn34)cc2c1
Response: 1 to 10 µM

Query: Next entry: CN(c1ccccc1-c1ccc2cnc(Nc3ccc4c(c3)CCCC(=O)N4)nn12)S(C)(=O)=O
Response: < 0.1 µM

Query: Next entry: CN1CCN(c2ccc(Nc3ncc4ccc(-c5ccccc5N(C)S(C)(=O)=O)n4n3)c(Cl)c2)CC1
Response: < 0.1 µM

Query: Next entry: Cn1cc(-c2ccc3cnc(Nc4ccc5c(c4)NC(=O)C5)nn23)cn1
Response: 1 to 10 µM

Query: Next entry: COc1cc(C(=O)N2CCN(C)CC2)ccc1Nc1ncc2ccc(-c3ccccc3N(C)S(C)(=O)=O)n2n1
Response: 0.1 to 1 µM

Query: Next entry: COc1ccc(-c2ccc3cnc(Nc4ccc(N5CCN(CCO)CC5)cc4)nn23)cn1
Response: 0.1 to 1 µM

Query: Next entry: CN1CCN(c2cccc(Nc3ncc4ccc(-c5cccc(S(=O)(=O)NC(C)(C)C)c5)n4n3)c2)CC1
Response: < 0.1 µM

Query: Next entry: CON=C1CCC(c2ccc(Nc3ncc4ccc(-c5cccc(S(=O)(=O)NC(C)(C)C)c5)n4n3)cc2)CC1 (stereo not shown)
Response: > 10 µM

Query: Next entry: COc1ccccc1-c1ccc2cnc(Nc3cn(CC(=O)N4CCOCC4)cn3)nn12
Response: 1 to 10 µM

Query: Next entry: CN1CCN(c2cccc(Nc3ncc4ccc(-c5cnn(S(C)(=O)=O)c5)n4n3)c2)CC1
Response: 0.1 to 1 µM

Query: Next entry: COc1cc(N2CCC(N3CCOCC3)CC2)ccc1Nc1ncc2ccc(-c3cccc4cccnc34)n2n1
Response: 0.1 to 1 µM

Query: Next entry: CN(c1ccccc1-c1ccc2cnc(Nc3ccc(C4CN(CC(N)=O)C4)cc3)nn12)S(C)(=O)=O
Response: < 0.1 µM

Query: Next entry: COc1ccccc1-c1ccc2cnc(Nc3ccc4c(c3)C(NC(=O)OC(C)(C)C)C(O)C4)nn12 (stereo not shown)
Response: 0.1 to 1 µM

Query: Next entry: CCNC(=O)Nc1cccc(Nc2ncc3ccc(-c4ccc(OC)nc4)n3n2)c1
Response: > 10 µM

Query: Next entry: CS(=O)(=O)c1cccc(-c2ccc3cnc(Nc4ccc(C5CN(CC(N)=O)C5)cc4)nn23)c1
Response: 0.1 to 1 µM

Query: Next entry: CN1CCOc2ccc(Nc3ncc4ccc(-c5cccnc5)n4n3)cc21
Response: 1 to 10 µM

Query: Next entry: CN1CCN(c2ccc(Nc3ncc4ccc(Sc5ccncc5)n4n3)cc2)CC1
Response: 1 to 10 µM
